Source of measurements: patent US20220332795A1

Molecular target: T1, recombinant biotinylated human CD71 extracellular domain (human, UniProt P02786 89-760, biotinylated)
T1 construct: extracellular domain; also called hCD71; huCD71 ECD
T1 sequence (P02786 other isoform, or with tags, fused parts or gaps): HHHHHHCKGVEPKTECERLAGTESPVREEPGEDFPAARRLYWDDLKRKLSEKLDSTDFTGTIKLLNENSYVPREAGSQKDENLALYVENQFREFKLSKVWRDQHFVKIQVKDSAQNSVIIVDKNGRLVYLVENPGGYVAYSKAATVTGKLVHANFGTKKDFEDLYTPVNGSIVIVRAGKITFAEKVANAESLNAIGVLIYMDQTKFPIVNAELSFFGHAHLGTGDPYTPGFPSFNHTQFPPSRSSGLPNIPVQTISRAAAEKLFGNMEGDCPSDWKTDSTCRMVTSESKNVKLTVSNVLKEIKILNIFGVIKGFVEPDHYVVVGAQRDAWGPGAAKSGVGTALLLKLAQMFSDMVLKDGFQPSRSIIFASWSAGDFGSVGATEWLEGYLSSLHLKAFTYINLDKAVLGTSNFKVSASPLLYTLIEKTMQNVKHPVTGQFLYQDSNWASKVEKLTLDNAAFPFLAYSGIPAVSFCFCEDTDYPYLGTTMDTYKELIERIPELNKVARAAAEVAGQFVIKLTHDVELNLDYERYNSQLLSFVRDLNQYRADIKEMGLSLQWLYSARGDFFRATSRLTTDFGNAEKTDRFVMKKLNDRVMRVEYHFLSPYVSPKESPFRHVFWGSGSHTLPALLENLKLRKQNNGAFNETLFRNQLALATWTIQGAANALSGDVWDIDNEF
Assay: solution ELISA, signal ratio to HSA
The entries below come with measured hCD71:HSA values attached.
// no unit string in output, number only

Examples with answers:
>  <binder>
SEQ ID NO 155 (designed binder, FN3 domain) MLPAPKNLVVSRVTEDSARLSWTAPDAAFDSFYIAYAEPRPDGEAIWLVVPGSERSYDLTGLKPGTEYSVLIHGVKGGLLSSPLHARFTT

>  <measured_result>
27.7

$$$$
>  <binder>
SEQ ID NO 189 (designed binder, FN3 domain) MLPAPKNLVVSRVTEDSARLSWTAPDAAFDSFYIAYAEPRPDGEAIQLTVPGSERSYDLTGPKPGTEYWVLIQGVKGGGSSVPLVAYFTT

>  <measured_result>
21.5

$$$$
>  <binder>
SEQ ID NO 147 (designed binder, FN3 domain) MLPAPKNLVVSRVTEDSARLSWTAPDAAFDSFYIAYAEPRPDGEAIVLEVPGSERSYDLTGLKPGTEYSVLIHGVKGGLLSSPLDAHFTT

>  <measured_result>
204

$$$$
>  <binder>
SEQ ID NO 199 (designed binder, FN3 domain) MLPAPKNLVVSRVTEDSARLSWTAPDAAFDSFYIAYAEPRPDGEAIHLWVPGSERSYDLTGLKPGTEYSVLIHGVKGGLLSSPLHADFTT

>  <measured_result>
24.3

$$$$
>  <binder>
SEQ ID NO 156 (designed binder, FN3 domain) MLPAPKNLVVSRVTEDSARLSWTAPDAAFDSFYIAYAEPRPDGEAIFLQVPGSERSYDLTGLKPGTEYSVLIHGVKGGLLSSPLAAVFTT

>  <measured_result>
104

$$$$
>  <binder>
SEQ ID NO 142 (designed binder, FN3 domain) MLPAPKNLVVSRVTEDSARLSWTAPDAAFDSFFIGYLEPQPPGEAIGLQVPGSERSYDLTGLKPGTEYNVTIQGVKGGFPSHPLKAQFTT

>  <measured_result>
123

$$$$
>  <binder>
SEQ ID NO 116 (designed binder, FN3 domain) MLPAPKNLVVSRVTEDSARLSWTAPDAAFDSFYIAYAEPRPDGEAIQLVVPGSERSYDLTGLKPGTEYSVLIHGVKGGLLSSPLSAIFTT

>  <measured_result>
37.1

$$$$
>  <binder>
SEQ ID NO 173 (designed binder, FN3 domain) MLPAPKNLVVSRVTEDSARLSWTAPDAAFDSFHIVYHEPRPSGEAIHLQVPGSERSYDLTGLKPGTEYNVTIQGVKGGFPSYPLSAFFTT

>  <measured_result>
66.5

$$$$

Then this binder:
Sure, the documented hCD71:HSA for SEQ ID NO 128 (designed binder, FN3 domain) MLPAPKNLVVSRVTEDSARLSWTAPDAAFDSFYIAYAEPRPDGEAIVLRVPGSERSYDLTGLKPGTEYSVLIHGVKGGLLSSPLIASFTT is 121
